Entry source: patent US20030068675

assayed_target: T1, ZFP SBS#774 (synthetic)
T1 chain: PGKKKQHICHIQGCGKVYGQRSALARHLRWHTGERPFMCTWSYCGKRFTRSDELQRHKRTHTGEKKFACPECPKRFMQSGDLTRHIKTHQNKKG
test_name: EMSA
particulars: tags: MBP fusion
recorded_endpoint: Kd (nM)
Give the quantity in nM, number only.

-- ask Provide measured Kd value, entry: GCAGCGGTAG (dsDNA) DNA 1: GCAGCGGTAG DNA 2: CTACCGCTGC
-- reply 258
